Recorded values, source the Kinase Knowledgebase extract (Sharma et al. 2016).

Below are IC50 values measured for PIK3CA (human).

Here are 2 compounds together with their reported answers.
>>> measured_value("Cc1ccccc1-n1c(Cn2nc(-c3ccc4nc(N)ncc4c3)c3c(N)ncnc32)cc2cccc(C)c2c1=O")
"< 100 nM"
>>> measured_value("CNC(=O)Nc1nc2ccc(-c3nn(Cc4cc5cccc(C)c5c(=O)n4-c4ccccc4C)c4ncnc(N)c34)cc2s1")
"< 100 nM"

Exercise: Write down IC50 measured for item CC(=O)Nc1nc2ccc(-c3nn(Cc4cc5cccc(Cl)c5c(=O)n4C4CC4)c4ncnc(N)c34)cc2s1
Solution: < 100 nM

###

molecular target: PIK3CD (Human) (UniProt O00329)
Sequence (O00329 whole entry, looked up): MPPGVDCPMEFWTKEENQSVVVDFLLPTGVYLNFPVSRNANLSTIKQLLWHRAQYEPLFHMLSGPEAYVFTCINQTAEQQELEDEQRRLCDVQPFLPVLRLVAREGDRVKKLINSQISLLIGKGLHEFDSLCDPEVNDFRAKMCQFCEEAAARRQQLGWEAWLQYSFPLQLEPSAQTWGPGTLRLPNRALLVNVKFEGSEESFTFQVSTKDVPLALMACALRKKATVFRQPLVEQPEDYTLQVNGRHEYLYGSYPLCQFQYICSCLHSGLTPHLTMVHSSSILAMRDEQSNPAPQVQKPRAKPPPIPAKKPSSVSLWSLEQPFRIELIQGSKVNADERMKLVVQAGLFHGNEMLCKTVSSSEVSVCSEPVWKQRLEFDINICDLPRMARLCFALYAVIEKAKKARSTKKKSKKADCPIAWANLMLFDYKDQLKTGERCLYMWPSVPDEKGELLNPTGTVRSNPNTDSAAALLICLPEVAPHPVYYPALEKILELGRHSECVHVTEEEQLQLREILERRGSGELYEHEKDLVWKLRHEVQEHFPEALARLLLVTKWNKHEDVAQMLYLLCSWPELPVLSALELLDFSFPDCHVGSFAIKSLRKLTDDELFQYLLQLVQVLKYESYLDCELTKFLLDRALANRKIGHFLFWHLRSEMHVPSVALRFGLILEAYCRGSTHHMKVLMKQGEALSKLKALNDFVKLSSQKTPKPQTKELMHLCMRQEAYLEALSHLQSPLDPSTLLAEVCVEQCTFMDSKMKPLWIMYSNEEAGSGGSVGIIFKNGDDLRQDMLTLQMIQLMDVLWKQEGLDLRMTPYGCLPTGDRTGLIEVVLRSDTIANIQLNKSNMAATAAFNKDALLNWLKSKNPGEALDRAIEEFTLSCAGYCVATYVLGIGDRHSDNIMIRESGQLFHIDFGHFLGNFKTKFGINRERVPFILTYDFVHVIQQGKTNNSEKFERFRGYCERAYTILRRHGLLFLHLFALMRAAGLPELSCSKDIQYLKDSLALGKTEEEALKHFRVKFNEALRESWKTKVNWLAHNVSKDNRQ
quantity: IC50

Here are 4 compounds together with their reported answers.
>>> measured_value("Cc1csc2nc(Cn3nc(-c4cccc(O)c4)c4c(N)ncnc43)n(-c3ccccc3F)c(=O)c12")
"< 100 nM"
>>> measured_value("Cc1ccccc1-n1c(Cn2nc(I)c3c(N)ncnc32)nc2scc(C)c2c1=O")
"< 100 nM"
>>> measured_value("CC(=O)Nc1nc2ccc(-c3nn(Cc4cc5cccc(C)c5c(=O)n4-c4cccc(F)c4)c4ncnc(N)c34)cc2s1")
"< 100 nM"
>>> measured_value("Cc1cccc2cc(Cn3nc(-c4ccc(F)c(O)c4)c4c(N)ncnc43)n(-c3ccccc3F)c(=O)c12")
"< 100 nM"

Count: 4. Required value per item: IC50.
1. CCn1c(Cn2nc(-c3ccc4nc(NC(C)=O)sc4c3)c3c(N)ncnc32)cc2cccc(C)c2c1=O
2. CC(=O)Nc1nc2ccc(-c3nn(Cc4cc5cccc(F)c5c(=O)n4C(C)C)c4ncnc(N)c34)cc2s1
3. Cc1cccc2cc(Cn3nc(-c4cn[nH]c4)c4c(N)ncnc43)n(-c3ccccc3C(C)C)c(=O)c12
4. Cc1cccc2cc(C(C)Nc3ncnc4[nH]cnc34)n(-c3ccccc3F)c(=O)c12 (stereo not drawn)

Solution:
< 100 nM
< 100 nM
< 100 nM
< 100 nM
